# TESTED ON: human α7 nicotinic acetylcholine receptor (HEK cell line stably expressing human RIC-3 and human α7) (Homo sapiens, UniProt P36544)
# Construct: host or cells: HEK cell line (PrecisION hnAChR α7/RIC-3)
# Sequence (P36544 23-502): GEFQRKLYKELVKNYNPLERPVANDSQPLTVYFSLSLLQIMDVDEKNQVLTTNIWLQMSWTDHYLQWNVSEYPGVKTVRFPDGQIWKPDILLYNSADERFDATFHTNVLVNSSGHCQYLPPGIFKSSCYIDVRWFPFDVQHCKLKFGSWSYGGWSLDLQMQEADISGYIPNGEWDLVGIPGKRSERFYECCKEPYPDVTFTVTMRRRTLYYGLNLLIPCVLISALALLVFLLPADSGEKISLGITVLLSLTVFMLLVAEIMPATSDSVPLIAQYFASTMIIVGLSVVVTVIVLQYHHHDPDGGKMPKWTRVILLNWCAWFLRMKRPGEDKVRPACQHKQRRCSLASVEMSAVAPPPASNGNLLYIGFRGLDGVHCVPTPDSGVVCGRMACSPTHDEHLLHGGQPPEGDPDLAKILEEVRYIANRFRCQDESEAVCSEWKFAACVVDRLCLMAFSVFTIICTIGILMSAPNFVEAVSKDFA
# PROTOCOL DETAILS: Automated patch-clamp electrophysiology functional assay (Assay A), IonFlux HT, whole-cell population patch
# Type: cell-based
# EXPERIMENTAL SETUP: HEK cells expressing human α7/RIC-3; test compound with or without 40 μM acetylcholine; holding potential −60 mV; room temperature; read-out: α7 nAChR Potency
pEC50: −log10 of the molar value.
EXPERIMENTAL READOUT: pEC50

Sample records with pEC50:
Cc1ccccc1-c1nnc([C@@H]2CC23CCN(S(N)(=O)=O)CC3)s1 [Example F8]
5.30 to 6.30
Cc1cnn(CC(F)(F)F)c1-c1nc([C@@H]2CC23CCN(S(N)(=O)=O)CC3)no1 [Example 8]
6.30 to 7.00

Need pEC50, item COc1ccc(Cl)cc1-c1noc(C2CC23CCN(C(=O)NCc2ccccc2)CC3)n1 (racemic) [Example B13]
4.30 to 5.30

Need pEC50, item NS(=O)(=O)N1CCC2(CC1)[C@H](c1noc(-c3c4c(nn3C3CC3)CCCC4)n1)C2(F)F [Example E47]
6.30 to 7.00

Need pEC50, item NS(=O)(=O)N1CCC2(CC1)C[C@H]2c1noc(Cc2ccc(F)cc2C(F)(F)F)n1 [Example E12]
5.30 to 6.30

Need pEC50, item CC1CN(S(N)(=O)=O)CCC12CC2c1nc(-c2ccnc(OCC(F)(F)F)c2)no1 (single isomer, unassigned) [Example I5]
5.30 to 6.30

* * *

# TESTED ON: human α7 nicotinic acetylcholine receptor (HEK cell line stably expressing human RIC-3 and human α7) (Homo sapiens, UniProt P36544)
# Construct: host or cells: HEK cell line (PrecisION hnAChR α7/RIC-3)
# PROTOCOL DETAILS: Automated patch-clamp electrophysiology functional assay (Assay A), IonFlux HT, whole-cell population patch
# Assay type: cell-based
# EXPERIMENTAL SETUP: automated patch-clamp electrophysiology functional assay (Assay A); read-out: α7 nAChR EC50
Response field label takes Satisfied when EC50 is strictly below 900 nM and Not satisfied in all other cases.

Answered cases to consult:
NS(=O)(=O)N1CCC2(CC1)[C@H](c1noc(-c3ccnc(OC4CC4)c3)n1)C2(F)F
Satisfied
Cc1ccc(C(F)(F)F)nc1-c1nc([C@@H]2CC23CCN(S(N)(=O)=O)CC3)no1
Satisfied
NS(=O)(=O)N1CCC2(CC1)[C@H](c1noc(-c3c(C(F)(F)F)cnn3C3CC3)n1)C2(F)F
Satisfied

API: query returns whether the compound falls strictly under 900 nM in EC50. Query: NS(=O)(=O)N1CCC2(CC1)C[C@H]2c1noc(-c2ccc(Cl)cc2OC(F)F)n1
Satisfied

API: query returns whether the compound falls strictly under 900 nM in EC50. Query: NS(=O)(=O)N1CCC2(CC1)[C@@H](c1nc(-c3ccc(F)cc3C(F)(F)F)no1)C2(F)F
Not satisfied

* * *

# TESTED ON: human α7 nicotinic acetylcholine receptor (HEK cell line stably expressing human RIC-3 and human α7) (Homo sapiens)
# Construct: host or cells: HEK cell line (PrecisION hnAChR α7/RIC-3)
# PROTOCOL DETAILS: Automated patch-clamp electrophysiology functional assay (Assay A), IonFlux HT, whole-cell population patch
# Assay type: cell-based
# EXPERIMENTAL SETUP: HEK cells expressing human α7/RIC-3; test compound with or without 40 μM acetylcholine; holding potential −60 mV; room temperature; read-out: α7 nAChR Potency
# Protocol: The α7 nAChR positive allosteric modulator (PAM) activity of the present compounds may be tested using assays known in the art. […] The assay was performed using the IonFlux HT in a whole-cell, population patch configuration. See Golden et al. Assay Drug Dev. Technol. […] The compounds were assessed for their ability to modulate the function of the human 7 nAChR stably expressed in a HEK cell line both in the presence, and in the absence of the natural 7 agonist acetylcholine. […]
pEC50: −log10 of the molar value.
EXPERIMENTAL READOUT: pEC50

Need pEC50, item Cn1nccc1-c1nc([C@@H]2C(F)(F)C23CCN(S(N)(=O)=O)CC3)no1 [Example E43]
6.30 to 7.00

Need pEC50, item NS(=O)(=O)N1CCC2(CC1)[C@H](c1noc(-c3ccccn3)n1)C2(F)F [Example E67]
5.30 to 6.30

Need pEC50, item Cc1ccccc1-c1nnc([C@@H]2C(F)(F)C23CCN(S(N)(=O)=O)CC3)o1 [Example F13]
6.30 to 7.00

Need pEC50, item CC(c1nc([C@@H]2CC23CCN(S(N)(=O)=O)CC3)no1)c1ccccc1Cl (mixture of isomers) [Example E8]
5.30 to 6.30

* * *

# TESTED ON: human α7 nicotinic acetylcholine receptor (HEK cell line stably expressing human RIC-3 and human α7) (Homo sapiens, UniProt P36544)
# Construct: host or cells: HEK cell line (PrecisION hnAChR α7/RIC-3)
# PROTOCOL DETAILS: Automated patch-clamp electrophysiology functional assay (Assay A), IonFlux HT, whole-cell population patch
# Assay type: cell-based
# EXPERIMENTAL SETUP: automated patch-clamp electrophysiology functional assay (Assay A); read-out: α7 nAChR EC50
We begin with a simple list: items and their reported pEC50.
Reminder that pEC50 is minus the log10 of a molar concentration.

Sample records with pEC50:
COc1ccc(Cl)cc1-c1noc([C@@H]2CC23CCN(S(N)(=O)=O)CC3)n1 [Example A1]
6.31
NS(=O)(=O)N1CCC2(CC1)C[C@H]2c1noc(-c2ccccc2Oc2ccccc2)n1 [Example E71]
6.44
NS(=O)(=O)N1CCC2(CC1)[C@H](c1noc(-c3cc(C(F)(F)F)nn3C3CC3)n1)C2(F)F [Example 29]
6.77

Shift focus to the following entry.
Need pEC50, item NS(=O)(=O)N1CCC2(CC1)[C@H](c1csc(-c3conc3C3CC3)n1)C2(F)F [Example G4]
6.96

* * *

We begin with a simple list: items and their reported EC50.
# TESTED ON: human α7 nicotinic acetylcholine receptor (HEK cell line stably expressing human RIC-3 and human α7) (Homo sapiens, UniProt P36544)
# Construct: host or cells: HEK cell line (PrecisION hnAChR α7/RIC-3)
# PROTOCOL DETAILS: Automated patch-clamp electrophysiology functional assay (Assay A), IonFlux HT, whole-cell population patch
# Type: cell-based
# EXPERIMENTAL SETUP: HEK cells expressing human α7/RIC-3; test compound with or without 40 μM acetylcholine; holding potential −60 mV; room temperature; read-out: α7 nAChR Potency

NS(=O)(=O)N1CCC2(C(F)C1)C(c1nc(-c3ccc(F)cc3C(F)(F)F)no1)C2(F)F (stereo not drawn) [Example I15]
500 to 5000 nM
Cc1ncc(C(F)(F)F)cc1-c1nc([C@@H]2CC23CCN(S(N)(=O)=O)CC3)no1
500 to 5000 nM
COc1ccc(Cl)cc1-c1nc(C2CC23CCN(S(C)(=O)=O)CC3)no1 (racemic) [Example J1]
500 to 5000 nM

Need EC50, item Cc1ccc(C)c(-c2nc([C@@H]3C(F)(F)C34CCN(S(N)(=O)=O)CC4)no2)c1
< 100 nM

Need EC50, item NS(=O)(=O)N1CCC2(CC1)C[C@H]2c1noc(-c2ccc(F)cc2C(F)(F)F)n1
100 to 500 nM

Need EC50, item Cc1noc(C)c1-n1cc([C@@H]2CC23CCN(S(N)(=O)=O)CC3)cn1
500 to 5000 nM

Need EC50, item NS(=O)(=O)N1CCC2(CC1)[C@H](c1noc(-c3ccnc(OC(F)F)c3)n1)C2(F)F
100 to 500 nM

Need EC50, item NS(=O)(=O)N1CCC2(CC1)C[C@H]2c1nnc(-c2ccccc2OCC(F)(F)F)o1
500 to 5000 nM

Need EC50, item NS(=O)(=O)N1CCC2(C(F)C1)C(c1nc(-c3ccc(F)cc3C(F)(F)F)no1)C2(F)F (stereo not drawn) [Example I18]
100 to 500 nM

* * *

# TESTED ON: human α7 nicotinic acetylcholine receptor (HEK cell line stably expressing human RIC-3 and human α7) (Homo sapiens, UniProt P36544)
# Construct: host or cells: HEK cell line (PrecisION hnAChR α7/RIC-3)
# PROTOCOL DETAILS: Automated patch-clamp electrophysiology functional assay (Assay A), IonFlux HT, whole-cell population patch
# Format: cell-based
# EXPERIMENTAL SETUP: automated patch-clamp electrophysiology functional assay (Assay A); read-out: α7 nAChR EC50
Response field label takes class 1 when EC50 is strictly below 500 nM and class 0 in all other cases.

Cc1cnc2cc(-c3nc([C@@H]4C(F)(F)C45CCN(S(N)(=O)=O)CC5)no3)ccn12
class 0
N#CC1(c2ccccc2-c2nc([C@@H]3CC34CCN(S(N)(=O)=O)CC4)no2)CC1
class 0

API: query returns whether the compound falls strictly under 500 nM in EC50. Query: NS(=O)(=O)N1CCC2(CC1)C(c1noc(-c3ccccc3C3CC3)n1)C2(F)F (stereo not drawn)
class 1

API: query returns whether the compound falls strictly under 500 nM in EC50. Query: Cc1nn(C)c(-c2nc([C@@H]3C(F)(F)C34CCN(S(N)(=O)=O)CC4)no2)c1C
class 1

API: query returns whether the compound falls strictly under 500 nM in EC50. Query: COc1ccc(Cl)cc1-c1noc(C2CC23CCN(C(=O)NCc2ccns2)CC3)n1 (racemic)
class 0

API: query returns whether the compound falls strictly under 500 nM in EC50. Query: NS(=O)(=O)N1CCC2(CC1)C[C@H]2c1noc(-c2ccccc2C(F)(F)F)n1
class 0

API: query returns whether the compound falls strictly under 500 nM in EC50. Query: NS(=O)(=O)N1CCC2(C(F)C1)C(c1nc(-c3conc3C3CC3)no1)C2(F)F (single isomer, unassigned) [Example I13]
class 0

API: query returns whether the compound falls strictly under 500 nM in EC50. Query: CC(C)C1CC(c2nc([C@@H]3CC34CCN(S(N)(=O)=O)CC4)no2)C1 (mixture of isomers)
class 0

API: query returns whether the compound falls strictly under 500 nM in EC50. Query: NS(=O)(=O)N1CCC2(CC1)C[C@H]2c1noc(-c2ccnnc2C2CC2)n1
class 0

API: query returns whether the compound falls strictly under 500 nM in EC50. Query: CCn1nc(C)cc1-c1nc([C@@H]2CC23CCN(S(N)(=O)=O)CC3)no1
class 1

API: query returns whether the compound falls strictly under 500 nM in EC50. Query: Cn1nc2c(c1-c1nc([C@@H]3CC34CCN(S(N)(=O)=O)CC4)no1)CCCC2
class 1

API: query returns whether the compound falls strictly under 500 nM in EC50. Query: CC(C)Oc1cc(-c2nc([C@@H]3C(F)(F)C34CCN(S(N)(=O)=O)CC4)no2)ccn1
class 0
